# credit: PubChem BioAssay AID624330

- assay.target: Rac GTPase-activating protein 1 (Homo sapiens) (UniProt Q9H0H5)
- Sequence (Q9H0H5 whole entry, looked up): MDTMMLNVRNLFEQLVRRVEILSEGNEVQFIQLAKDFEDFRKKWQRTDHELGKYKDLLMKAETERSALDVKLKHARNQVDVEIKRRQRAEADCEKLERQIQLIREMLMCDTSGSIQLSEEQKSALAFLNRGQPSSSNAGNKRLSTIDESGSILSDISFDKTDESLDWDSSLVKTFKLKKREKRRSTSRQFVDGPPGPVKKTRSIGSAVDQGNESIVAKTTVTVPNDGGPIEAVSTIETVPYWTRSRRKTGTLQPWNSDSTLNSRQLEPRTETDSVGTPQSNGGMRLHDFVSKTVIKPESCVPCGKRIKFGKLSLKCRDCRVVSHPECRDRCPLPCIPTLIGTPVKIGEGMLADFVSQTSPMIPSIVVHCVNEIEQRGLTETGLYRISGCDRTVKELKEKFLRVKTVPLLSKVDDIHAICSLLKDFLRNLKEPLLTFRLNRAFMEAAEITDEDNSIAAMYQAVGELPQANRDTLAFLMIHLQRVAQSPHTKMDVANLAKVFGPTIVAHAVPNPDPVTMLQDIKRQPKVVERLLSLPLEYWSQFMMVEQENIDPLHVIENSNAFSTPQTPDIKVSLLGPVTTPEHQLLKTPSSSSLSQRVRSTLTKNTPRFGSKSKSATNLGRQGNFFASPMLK
- experiment.description: blockers of MgcRacGAP-driven Rac1 GTP hydrolysis – biochemical, ADP Hunter fluorescence, primary and confirmatory, confirmation (AID 624330);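 also: fluorescence reports GDP produced by GAP-driven GTP hydrolysis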
- details: MgcRacGAP-stimulated Rac1 GTP hydrolysis, at 30 µM, hits give high values, GST-tagged Rac1 F28L mutant substrate
Among all 340,000 compounds or so, about 2,100 (0.62%) were called active. A selection follows. Potency and affinity values are given separately.
Give inhibition for every item shown.
Respond numerically; units are % and should not be typed.

Data point: CCN1CCN(c2ccc(NC(=O)Cc3ccccc3)cc2)CC1 ; inhibition = 6.87

// inhibition lookup, molecule = CCOc1ccc(C2NC(=O)C(C#N)=C(S)N2c2ccc(C)cc2)cc1OC (stereo unspecified) , result: 51

The molecule O=C(NCc1ccccc1)c1n[nH]nc1-c1ccccc1O showed inhibition equal to -8.5

Per the record, Cc1cc(C)c(OCCN(C)Cc2ccccc2)c(Br)c1 has inhibition of 9.5

Looking up CCN1CCN(c2ccc(NC(=O)c3ccc(Br)o3)cc2)CC1 , I found its inhibition recorded as 8.5

The molecule identified as Cc1cc(C)c(C)c(OCCCCN(C)Cc2ccccc2)c1 registered its inhibition at 26.2

Recorded result, O=C(c1cccs1)N1CCN(c2ccccc2)CC1 , inhibition: -0.45

For record O=C(Nc1ccc(N2CCN(c3ccccc3)CC2)c(F)c1)C1CC1 the listed inhibition is 5.36

Please fill in: inhibition reported for O=C(C(c1ccccc1)C(O)(c1ccccc1)c1ccccc1)N1CCOCC1 (stereo unspecified) = -4.45

Measured inhibition of O=C(CSc1ccccc1)Nc1ccc(N2CCN(c3ccccc3)CC2)c(F)c1 : 5.08

Per the records, this molecule ( Cc1ccc(O)c(/C=N/NC(=O)Cc2ccc(Cl)cc2)c1 ) has inhibition equal to -8.7

* * *

Exercise: for every item that follows, state its recorded inhibition.
- assay.target: Rac GTPase-activating protein 1 (Homo sapiens)
- experiment.description: blockers of MgcRacGAP-driven Rac1 GTP hydrolysis – biochemical, ADP Hunter fluorescence, primary and confirmatory, confirmation (AID 624330);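 also: fluorescence reports GDP produced by GAP-driven GTP hydrolysis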
- details: MgcRacGAP-stimulated Rac1 GTP hydrolysis, at 30 µM, hits give high values, GST-tagged Rac1 F28L mutant substrate
Screen size: about 340,000 compounds; about 2,100 (0.62%) were called active. Not all results are given here. Potency and affinity values are given separately.
API: value field is a number in %; no unit string.

Entry c1cncc(Nc2nc(-c3ccncc3)cs2)c1 ; inhibition = 6.09

So, C=CC(=O)N1C/C(=C/c2ccccc2)C(=O)/C(=C\c2ccccc2)C1 ? Its inhibition was 26.6

Lab note: COc1ccc(-c2csc(NCc3ccco3)n2)cc1 gave inhibition of 12

Form: compound = Fc1ccc(-c2nnc3ccccn23)cc1 ; inhibition = 0.86

Lab note: CCOC(=O)c1cc(-c2ccccc2)nn1CCC#N gave inhibition of 8.67

Lab note: Nc1nonc1-n1nnc(C(=O)N/N=C/c2ccc(OCc3ccccc3F)cc2)c1CN1CCCCC1 gave inhibition of -2.32

# compound COc1ccc(/C=C2\CCc3ccccc3C2=O)cc1O ; its inhibition = 12.2

The compound identified as CC1CCN(CC(O)COc2ccc(OCC(O)CN3CCC(C)CC3)cc2)CC1 (configuration not stated) registered its inhibition at 15.7

The recorded inhibition for entry O=C(CCC(=O)N1CCOCC1)Nc1ccc(Cl)c(Cl)c1 equals 5.89

For this compound ( O=C(/C=C/c1ccc(Cl)c(Cl)c1)N1CCOCC1 ), measured inhibition is -0.69

compound c1ccc(-c2csc(Nc3ncccn3)n2)cc1 , inhibition observed: 0.5

inhibition for CC[n+]1c(/C=C2\C=C(C)CC(C)(C)C2)sc2ccccc21 is 31.8

Given item O=C1/C(=C/c2ccccc2)CN(C(=O)CCN2CCOCC2)C/C1=C\c1ccccc1 , the value recorded as its inhibition is 27.7

// sample CC1c2[nH]c3ccccc3c2CCN1S(C)(=O)=O (configuration not stated) , its inhibition was 1.37

The value of inhibition measured for the compound CCOC(=O)N1C/C(=C\c2ccccc2)C(=O)/C(=C/c2ccccc2)C1 turned out to be 12.1

Form field inhibition, entry C=CC(=O)N1C/C(=C/c2ccc(F)cc2)C(=O)/C(=C\c2ccc(F)cc2)C1 : 13.1

Reported inhibition for COc1cc(OC)c(OC)cc1CN1CCN(Cc2ccco2)CC1 was 20.1

Entry c1ccc(-c2csc(Nc3cccnc3)n2)cc1 — recorded inhibition = 3.24

Looking up CCOC(=O)c1ccc(NC(=O)C(=O)NCC2(c3ccc(OC)cc3)CCOCC2)cc1 , I see its inhibition listed as 15.5

For CCC(=Cc1ccccc1O)c1ccncc1 the compound record lists inhibition as 2.41

// inhibition value for Cc1cccc(CN2CCSCC2)c1 : 23.8

inhibition in this record for c1coc(CNc2nc(-c3ccncc3)cs2)c1 : 5.25

COc1ccc(CN2CCN(Cc3ccco3)CC2)cc1 yielded inhibition of 29.8

// inhibition lookup, compound = COc1cc(C(=O)Nc2cccc(S(=O)(=O)N3CCCC3)c2)c([N+](=O)[O-])cc1OC , result: 4.7

Data point: CC/C(=C\c1ccc(Cl)cc1)c1ccncc1 ; inhibition = 5.22

Recorded result, COc1cc2cnc(CCO[C@H]3CCCCO3)cc2cc1OC , inhibition: 7.49

Value of measured inhibition for the entry CCOc1ccc(NC(=O)c2cccs2)c([N+](=O)[O-])c1 : 9.62

CCCc1ccc(S(=O)(=O)N2CCN(Cc3ccco3)CC2)cc1 yielded inhibition of 8.89

# inhibition (compound: CCN(CC)CCC(=O)N1c2ccccc2Sc2ccc(Cl)cc21 ) is 2.76

response.value for C=CC(=O)N1C/C(=C/c2ccc(Cl)cc2)C(=O)/C(=C\c2ccc(Cl)cc2)C1 (field: inhibition) = 13.6

Documented inhibition of CCn1c(SCC(=O)OCc2ccccc2)nc2c1c(=O)n(C)c(=O)n2C : -1.89

Sample C=CC[n+]1ccc(/C=C2\C=Cc3cc(C)ccc3N2CC)c2ccccc21 ; inhibition observed: 17

Form: compound = Cc1ccn2c(=O)cc(C)nc2c1 ; inhibition = -1.02

Recorded result, CCCCn1c(N)c(N(Cc2ccccc2OC)C(=O)C(C)Oc2ccc(F)cc2)c(=O)[nH]c1=O (configuration not stated) , inhibition: 6.07

Per the records, this compound ( Cc1c(C(=O)NCC(c2ccco2)N(C)C)oc2c(Cl)cccc12 (configuration not stated) ) has inhibition equal to 5.84

compound CN1CCN(C(=O)c2cnn3c(C(F)(F)F)cc(-c4ccc5c(c4)OCO5)nc23)CC1 , inhibition observed: 9.9

Kindly note the recorded inhibition for Cc1ccc(S(=O)(=O)N2CCN(Cc3ccco3)CC2)c(C)c1 , which is 3.78

Looking up CSc1nc(=O)n2cccc(C)c2n1 , I see its inhibition listed as 0.29

The compound listed as COc1ccc(CN2CCN(C(=O)c3ccco3)CC2)cc1OC shows inhibition equal to 11.2

compound Cc1c(Br)c([N+](=O)[O-])nn1CC(=O)Nc1nccs1 , inhibition observed: -2.73

Lab note: CN(CC1CCOCC1)C(=O)CC1C(=O)NCCN1Cc1cccc(Oc2ccccc2)c1 (configuration not stated) gave inhibition of -8.59

GET /value?item= Cc1cc(OCC(=O)OCC(=O)Nc2cc(S(=O)(=O)N3CCOCC3)ccc2Cl)ccc1Cl &field=inhibition returns 2.85

GET /value?item= COc1cccc(/C=C2\CCc3ccccc3C2=O)c1 &field=inhibition returns 7.06

Lab note: O=C1CN(S(=O)(=O)c2cccc(Cl)c2Cl)c2ccccc2N1 gave inhibition of 4.66

Data point: Cn1cc(CN2CCC(C(=O)Nc3cccc(-c4cccc(F)c4)c3)CC2)cn1 ; inhibition = 5.69

inhibition for Cc1nc2ncccn2c1-c1csc(Nc2ccccc2)n1 is 11

Looking up COc1cc(C=C2C(=O)c3ccccc3C2=O)ccc1O , I see its inhibition listed as 15.4

* * *

- assay.target: Rac GTPase-activating protein 1 (Homo sapiens)
- experiment.description: blockers of MgcRacGAP-driven Rac1 GTP hydrolysis – biochemical, ADP Hunter fluorescence, primary and confirmatory, confirmation (AID 624330);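 also: fluorescence reports GDP produced by GAP-driven GTP hydrolysis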
- details: MgcRacGAP-stimulated Rac1 GTP hydrolysis, at 30 µM, hits give high values, GST-tagged Rac1 F28L mutant substrate
About 2,100 (0.62%) of roughly 340,000 compounds were called active. Only a sample is shown. Potency and affinity values are given separately.
readout.type: inhibition (%)
Enter your answer as a number in %; do not include the unit.

In plain terms, Cc1ccc(S(=O)(=O)NN=Cc2c(O)ccc3ccccc23)cc1 has a documented inhibition of 11.4

Entry CCN(C(=O)COC(=O)/C=C/c1c(C)nn(-c2ccccc2)c1C)C1CCS(=O)(=O)C1 (stereo not given) , inhibition reported as 5.67

Measured inhibition of CCN(CC)C(=O)/C=C/c1ccccc1 : 10.4

Measured inhibition of O=S1(=O)N[C@@H](CC2CCCCC2)COc2cc(Br)ccc21 : 6.23

The compound CCC(c1nnc(SCC(=O)Nc2cc(Cl)ccc2C#N)n1C1CCCCC1)N(C)C (stereo not given) showed inhibition equal to 5.01

# compound CN(C(=O)c1ccc(NC(=O)Cc2ccc(NC(=O)C3CCN(C(=O)C4CCCC4)CC3)cc2)cc1)C1CC1 ; its inhibition = 4.41

Per the record, C[C@H](CO)N1C[C@H](C)[C@@H](CN(C)S(=O)(=O)c2ccc(F)cc2)Oc2c(NC(=O)Cc3ccccc3)cccc2C1=O has inhibition of 9.78

For record CCc1ccc(NC(=O)C2CCN(S(=O)(=O)c3ccc4c(c3)NC(=O)CO4)CC2)cc1 the listed inhibition is -14

The recorded inhibition for COc1ccc(N2CCN(C(=O)COC(=O)Cc3ccc(F)cc3)CC2)cc1 is 17.9

// field: inhibition; key: Cc1ccc(NC(=O)C2=CC=CN3CCS(=O)(=O)N=C23)cc1 ; value = 2.18
